assay: Mouse PK analysis, large intestine; type: in vivo; conditions: female, CD-1, mouse, large intestine, iv, 5 mg/kg; read-out: Large Intestinal pK AUClast (converted)
readout: AUC(0-t) (ng·h/mL)
Express your answer in ng·h/mL, writing the number without its unit.

### Prompt Give the measured AUC(0-t) of CC1CCN(C2CCN(S(=O)(=O)c3ccc(OC(F)F)cc3)CC2)CC1 [compound 22] .
### Response 8530

----------
Below is a list of entries, each paired with its recorded AUC(0-t) value.
assay: Mouse PK analysis, large intestine; format: in vivo; settings: female, CD-1, mouse, large intestine, ip, 10 mg/kg; read-out: Large Intestinal pK AUClast (converted)
Express your answer in ng·h/mL, writing the number without its unit.

CC1CCN(C2CCN(S(=O)(=O)c3ccc(OC(F)F)cc3)CC2)CC1 [compound 22] :: 13200

Here's the next entry for you.
### Prompt Give the measured AUC(0-t) of COc1ccc(S(=O)(=O)N2CCC(N3CCC(C)CC3)CC2)cc1 [compound 6] .
### Response 12300

----------
Below is a list of entries, each paired with its recorded melting point value.

Cc1cc(C)c(S(=O)(=O)N2CCC(CO)CC2)c(C)c1 :: 85 to 88 °C
COc1ccc(OC)c(S(=O)(=O)N2CCC(N3CCC(C)CC3)CC2)c1 :: 75 to 78 °C
Cc1cc(C)c(S(=O)(=O)c2ccc(N3CCC(C)CC3)cc2)c(C)c1 :: 103 to 105 °C
CC1CCN(C2CCN(S(=O)(=O)c3ccc(Cl)cc3Cl)CC2)CC1 :: 75 to 78 °C

### Prompt Give the measured melting point of CC1CCN(C2CCN(S(=O)(=O)c3cnc(Cl)s3)CC2)CC1 .
### Response 141 to 143 °C

### Prompt Give the measured melting point of CC1CCN(C2CCN(S(=O)(=O)c3cccnc3F)CC2)CC1 .
### Response 120 to 123 °C

### Prompt Give the measured melting point of Cc1noc(C)c1S(=O)(=O)N1CCC(N2CCC(C)CC2)CC1 .
### Response 158 to 161 °C

### Prompt Give the measured melting point of CC1CCN(C2CCN(S(=O)(=O)c3cccc(Br)c3)CC2)CC1 .
### Response 125 to 126 °C

### Prompt Give the measured melting point of CC1CCN(C2CCN(S(=O)(=O)c3ccc(Cl)cc3)CC2)CC1 .
### Response 152 to 155 °C

### Prompt Give the measured melting point of CC1CCN(C2CCN(S(=O)(=O)c3ccc(F)cc3F)CC2)CC1 .
### Response 165 to 168 °C

----------
Below is a list of entries, each paired with its recorded melting point value.

### Prompt Give the measured melting point of CC1CCN(C2CCN(S(=O)(=O)c3ccc(C#N)cc3)CC2)CC1 .
### Response 184 to 186 °C

### Prompt Give the measured melting point of Cc1ccc(C2CCN(S(=O)(=O)c3c(C)cc(C)cc3C)CC2)cc1 .
### Response 87 to 90 °C

----------
Below is a list of entries, each paired with its recorded melting point value.

Cc1cc(C)c(S(=O)(=O)N2CCC(C=O)CC2)c(C)c1 [compound 138] :: 71 to 74 °C
CC1CCN(C2CCN(S(=O)(=O)c3ccc(Cl)nc3)CC2)CC1 [compound 74] :: 178 to 182 °C
CC1CCN(C2CCN(S(=O)(=O)c3nccn3C)CC2)CC1 [compound 77] :: 153 to 156 °C
Cc1cc(Cl)cc(Cl)c1S(=O)(=O)N1CCC(N2CCC(C)CC2)CC1 [compound 49] :: 89 to 91 °C
Cc1cccc(S(=O)(=O)N2CCC(N3CCC(C)CC3)CC2)c1 [compound 26] :: 90 to 93 °C
CC1CCN(C2CCN(S(=O)(=O)c3ccc(Cl)c4ccccc34)CC2)CC1 [compound 88] :: 129 to 132 °C
CC1CCN(C2CCN(S(=O)(=O)c3ccc(C(C)C)cc3)CC2)CC1 [compound 13] :: 144 to 147 °C
COc1ccc(-c2ccc(S(=O)(=O)N3CCC(N4CCC(C)CC4)CC3)cc2)cc1 [compound 58] :: 195 to 198 °C

Here's the next entry for you.
### Prompt Give the measured melting point of CCc1cc(Br)ccc1S(=O)(=O)N1CCC(N2CCC(C)CC2)CC1 [compound 38] .
### Response 87 to 91 °C

All values here come from patent US20220024891A1.
